Reference source for all entries: paper PMC6308302

Assay: Stability tests in rat plasma (QC samples, HPLC-MS)
Details: Placing plasma for 6h at 4°C, spiked 400 ng/mL, n=5
MEASUREMENT NAME: Stability: Measured (ng/mL)

- MOLECULE: "Cc1cccc2c3c(ccc12)C1=C(C(=O)C3=O)[C@@H](C)CO1 [DHTS I, dihydrotanshinone I]"
  MEASUREMENT NAME: "Stability: Measured"
  OBSERVED RESULT: 456.85
- MOLECULE: "CC(C)=CCC[C@](C)(O[C@@H]1O[C@H](CO)[C@@H](O)[C@H](O)[C@H]1O)[C@H]1CC[C@]2(C)[C@@H]1[C@H](O)C[C@@H]1[C@@]3(C)CC[C@H](O[C@@H]4O[C@H](CO)[C@@H](O)[C@H](O)[C@H]4O[C@@H]4O[C@H](CO)[C@@H](O)[C@H](O)[C@H]4O)C(C)(C)[C@@H]3CC[C@]12C [Rd, ginsenoside Rd]"
  MEASUREMENT NAME: "Stability: Measured"
  OBSERVED RESULT: 449.87
- MOLECULE: "CC(C)=CCC[C@](C)(O[C@@H]1O[C@H](CO)[C@@H](O)[C@H](O)[C@H]1O)[C@H]1CC[C@]2(C)[C@@H]1[C@H](O)C[C@@H]1[C@@]3(C)CC[C@H](O)C(C)(C)[C@@H]3[C@@H](O[C@@H]3O[C@H](CO)[C@@H](O)[C@H](O)[C@H]3O[C@@H]3OC[C@@H](O)[C@H](O)[C@H]3O)C[C@]12C [R1, notoginsenoside R1]"
  MEASUREMENT NAME: "Stability: Measured"
  OBSERVED RESULT: 387.55
- MOLECULE: "Cc1coc2c1C(=O)C(=O)c1c-2ccc2c(C)cccc12 [TS I, tanshinone I]"
  MEASUREMENT NAME: "Stability: Measured"
  OBSERVED RESULT: 469.39
- MOLECULE: "Cc1coc2c1C(=O)C(=O)c1c-2ccc2c1CCCC2(C)C [TS IIA, tanshinone (TS) IIA]"
  MEASUREMENT NAME: "Stability: Measured"
  OBSERVED RESULT: 462.76
- MOLECULE: "CC(C)=CCC[C@](C)(O[C@@H]1O[C@H](CO[C@@H]2O[C@H](CO)[C@@H](O)[C@H](O)[C@H]2O)[C@@H](O)[C@H](O)[C@H]1O)[C@H]1CC[C@]2(C)[C@@H]1[C@H](O)C[C@@H]1[C@@]3(C)CC[C@H](O[C@@H]4O[C@H](CO)[C@@H](O)[C@H](O)[C@H]4O[C@@H]4O[C@H](CO)[C@@H](O)[C@H](O)[C@H]4O)C(C)(C)[C@@H]3CC[C@]12C [Rb1, ginsenoside Rb1]"
  MEASUREMENT NAME: "Stability: Measured"
  OBSERVED RESULT: 376.87
- MOLECULE: "C[C@H]1COC2=C1C(=O)C(=O)c1c2ccc2c1CCCC2(C)C [CTS, cryptotanshinone]"
  MEASUREMENT NAME: "Stability: Measured"
  OBSERVED RESULT: 438.37

====

Test: Stability tests in rat plasma (QC samples, HPLC-MS)
Conditions: Placing plasma for 6h at 4°C, spiked 2 ng/mL, n=5
MEASUREMENT NAME: Stability: RE (%)

- COMPOUND: "Cc1cccc2c3c(ccc12)C1=C(C(=O)C3=O)[C@@H](C)CO1 [DHTS I, dihydrotanshinone I]"
  OBSERVED RESULT: 11.41
- COMPOUND: "Cc1coc2c1C(=O)C(=O)c1c-2ccc2c1CCCC2(C)C [TS IIA, tanshinone (TS) IIA]"
  OBSERVED RESULT: 6.84
- COMPOUND: "Cc1coc2c1C(=O)C(=O)c1c-2ccc2c(C)cccc12 [TS I, tanshinone I]"
  OBSERVED RESULT: 10.90
- COMPOUND: "CC(C)=CCC[C@](C)(O[C@@H]1O[C@H](CO)[C@@H](O)[C@H](O)[C@H]1O)[C@H]1CC[C@]2(C)[C@@H]1[C@H](O)C[C@@H]1[C@@]3(C)CC[C@H](O[C@@H]4O[C@H](CO)[C@@H](O)[C@H](O)[C@H]4O[C@@H]4O[C@H](CO)[C@@H](O)[C@H](O)[C@H]4O)C(C)(C)[C@@H]3CC[C@]12C [Rd, ginsenoside Rd]"
  OBSERVED RESULT: -17.56
- COMPOUND: "CC(C)=CCC[C@](C)(O[C@@H]1O[C@H](CO)[C@@H](O)[C@H](O)[C@H]1O)[C@H]1CC[C@]2(C)[C@@H]1[C@H](O)C[C@@H]1[C@@]3(C)CC[C@H](O)C(C)(C)[C@@H]3[C@@H](O[C@@H]3O[C@H](CO)[C@@H](O)[C@H](O)[C@H]3O[C@@H]3OC[C@@H](O)[C@H](O)[C@H]3O)C[C@]12C [R1, notoginsenoside R1]"
  OBSERVED RESULT: -12.56
- COMPOUND: "CC(C)=CCC[C@](C)(O[C@@H]1O[C@H](CO[C@@H]2O[C@H](CO)[C@@H](O)[C@H](O)[C@H]2O)[C@@H](O)[C@H](O)[C@H]1O)[C@H]1CC[C@]2(C)[C@@H]1[C@H](O)C[C@@H]1[C@@]3(C)CC[C@H](O[C@@H]4O[C@H](CO)[C@@H](O)[C@H](O)[C@H]4O[C@@H]4O[C@H](CO)[C@@H](O)[C@H](O)[C@H]4O)C(C)(C)[C@@H]3CC[C@]12C [Rb1, ginsenoside Rb1]"
  OBSERVED RESULT: -16.86
- COMPOUND: "C[C@H]1COC2=C1C(=O)C(=O)c1c2ccc2c1CCCC2(C)C [CTS, cryptotanshinone]"
  OBSERVED RESULT: -10.47

====

Assay: Stability tests in rat plasma (QC samples, HPLC-MS)
Details: 24h in auto-sampler vials, spiked 400 ng/mL, n=5
MEASUREMENT NAME: Stability: RE (%)

- COMPOUND: "Cc1cccc2c3c(ccc12)C1=C(C(=O)C3=O)[C@@H](C)CO1 [DHTS I, dihydrotanshinone I]"
  MEASUREMENT NAME: "Stability: RE"
  UOM: "%"
  OBSERVED RESULT: 16.17
- COMPOUND: "CC(C)=CCC[C@](C)(O[C@@H]1O[C@H](CO[C@@H]2O[C@H](CO)[C@@H](O)[C@H](O)[C@H]2O)[C@@H](O)[C@H](O)[C@H]1O)[C@H]1CC[C@]2(C)[C@@H]1[C@H](O)C[C@@H]1[C@@]3(C)CC[C@H](O[C@@H]4O[C@H](CO)[C@@H](O)[C@H](O)[C@H]4O[C@@H]4O[C@H](CO)[C@@H](O)[C@H](O)[C@H]4O)C(C)(C)[C@@H]3CC[C@]12C [Rb1, ginsenoside Rb1]"
  MEASUREMENT NAME: "Stability: RE"
  UOM: "%"
  OBSERVED RESULT: -3.47
- COMPOUND: "Cc1coc2c1C(=O)C(=O)c1c-2ccc2c(C)cccc12 [TS I, tanshinone I]"
  MEASUREMENT NAME: "Stability: RE"
  UOM: "%"
  OBSERVED RESULT: 17.64

====

Experiment: Multiple component PK study in rat plasma after p.o. GDDP (HPLC-MS)
Settings: Sprague-Dawley, rat, plasma, po, 0.4 g/kg
MEASUREMENT NAME: log10 AUC(0-t) (log10 of the value in ng·h/mL)

- COMPOUND: "Cc1cccc2c3c(ccc12)C1=C(C(=O)C3=O)[C@@H](C)CO1 [DHTS I, dihydrotanshinone I]"
  MEASUREMENT NAME: "log10 AUC(0-t)"
  OBSERVED RESULT: 1.08
- COMPOUND: "Cc1coc2c1C(=O)C(=O)c1c-2ccc2c(C)cccc12"
  MEASUREMENT NAME: "log10 AUC(0-t)"
  OBSERVED RESULT: 1.80
- COMPOUND: "CC(C)=CCC[C@](C)(O[C@@H]1O[C@H](CO[C@@H]2O[C@H](CO)[C@@H](O)[C@H](O)[C@H]2O)[C@@H](O)[C@H](O)[C@H]1O)[C@H]1CC[C@]2(C)[C@@H]1[C@H](O)C[C@@H]1[C@@]3(C)CC[C@H](O[C@@H]4O[C@H](CO)[C@@H](O)[C@H](O)[C@H]4O[C@@H]4O[C@H](CO)[C@@H](O)[C@H](O)[C@H]4O)C(C)(C)[C@@H]3CC[C@]12C [Rb1, ginsenoside Rb1]"
  MEASUREMENT NAME: "log10 AUC(0-t)"
  OBSERVED RESULT: 2.91
- COMPOUND: "Cc1coc2c1C(=O)C(=O)c1c-2ccc2c1CCCC2(C)C"
  MEASUREMENT NAME: "log10 AUC(0-t)"
  OBSERVED RESULT: 1.37
- COMPOUND: "CC(C)=CCC[C@](C)(O[C@@H]1O[C@H](CO)[C@@H](O)[C@H](O)[C@H]1O)[C@H]1CC[C@]2(C)[C@@H]1[C@H](O)C[C@@H]1[C@@]3(C)CC[C@H](O)C(C)(C)[C@@H]3[C@@H](O[C@@H]3O[C@H](CO)[C@@H](O)[C@H](O)[C@H]3O[C@@H]3OC[C@@H](O)[C@H](O)[C@H]3O)C[C@]12C [R1, notoginsenoside R1]"
  MEASUREMENT NAME: "log10 AUC(0-t)"
  OBSERVED RESULT: 2.16
- COMPOUND: "CC(C)=CCC[C@](C)(O[C@@H]1O[C@H](CO)[C@@H](O)[C@H](O)[C@H]1O)[C@H]1CC[C@]2(C)[C@@H]1[C@H](O)C[C@@H]1[C@@]3(C)CC[C@H](O[C@@H]4O[C@H](CO)[C@@H](O)[C@H](O)[C@H]4O[C@@H]4O[C@H](CO)[C@@H](O)[C@H](O)[C@H]4O)C(C)(C)[C@@H]3CC[C@]12C [Rd, ginsenoside Rd]"
  MEASUREMENT NAME: "log10 AUC(0-t)"
  OBSERVED RESULT: 2.40
- COMPOUND: "C[C@H]1COC2=C1C(=O)C(=O)c1c2ccc2c1CCCC2(C)C"
  MEASUREMENT NAME: "log10 AUC(0-t)"
  OBSERVED RESULT: -0.08
